System: NCI-H929 complex spheroids, viability % test/control
Experiment: Anticancer human tumor NCI-H929 cell line growth inhibition [RAS];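 also: compound exposure lasted seven days before viability was read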
Settings: curve of first compound; second compound 0.03 µM
Assay endpoint: IC50 (µM)

// solved cases for IC50 follow
Compound: CCN1CCN(Cc2ccc(Nc3ncc(F)c(-c4cc(F)c5nc(C)n(C(C)C)c5c4)n3)nc2)CC1 + CCn1c(-c2cccnc2C(C)OC)c2c3cc(ccc31)N1CCOC(CC(NC(=O)C(C(C)C)N(C)C(=O)C3(F)CCN(C(=O)C#CC(C)(C)N(C)C)CC3)C(=O)N3CCCC(N3)C(=O)OCC(C)(C)C2)C1
Assay endpoint: IC50
Unit abbreviation: µM
Readout number: 0.734
--
Compound: CC1(C)CCC(Nc2ncc(C(F)(F)F)c(-c3c[nH]c4c(P(C)(C)=O)c(C#N)ccc34)n2)CN1 (stereo not drawn) + CCn1c(-c2cccnc2C(C)OC)c2c3cc(ccc31)N1CCOC(CC(NC(=O)C(C(C)C)N(C)C(=O)C3(F)CCN(C(=O)C#CC(C)(C)N(C)C)CC3)C(=O)N3CCCC(N3)C(=O)OCC(C)(C)C2)C1
Assay endpoint: IC50
Unit abbreviation: µM
Readout number: 0.00179

P = CC(C)n1nc(-c2ccc3oc(N)nc3c2)c2c(N)ncnc21 + CCn1c(-c2cc(N3CCN(C)CC3)cnc2C(C)OC)c2c3cc(ccc31)-c1csc(n1)CC(NC(=O)C1CC1C)C(=O)N1CCCC(N1)C(=O)OCC(C)(C)C2
Q = CC(C)n1nc(-c2ccc3oc(N)nc3c2)c2c(N)ncnc21 + CCn1c(-c2cccnc2C(C)OC)c2c3cc(ccc31)N1CCOC(CC(NC(=O)C(C(C)C)N(C)C(=O)C3(F)CCN(C(=O)C#CC(C)(C)N(C)C)CC3)C(=O)N3CCCC(N3)C(=O)OCC(C)(C)C2)C1
I'm curious, which of these has a smaller IC50 number: P or Q ? Respond using the label that marks the chosen record.
P
(P: 0.00258 µM, Q: 0.0361 µM)
